system: 843782-103-R-J1-PDC complex spheroid viability; experiment: Anticancer human tumor 843782-103-R-J1-PDC patient-derived lung adenocarcinoma cell line growth inhibition [RAS]; conditions: second compound 0.3 µM; first compound 0.0949 µM; stronger effect = lower value
Task for the reader: assign each of the following compounds its reported viability, T/C.
One number for each entry, in %.

compound	measure-unit	result-number
CCc1c2c(nc3ccc(O)cc13)-c1cc3c(c(=O)n1C2)COC(=O)[C@]3(O)CC + CCn1c(-c2cccnc2C(C)OC)c2c3cc(ccc31)N1CCOC(CC(NC(=O)C(C(C)C)N(C)C(=O)C3(F)CCN(C(=O)C#CC(C)(C)N(C)C)CC3)C(=O)N3CCCC(N3)C(=O)OCC(C)(C)C2)C1	%	1.36

# per-item lookup of viability, T/C; items listed below
1. CC1(C)CCC(Nc2ncc(C(F)(F)F)c(-c3c[nH]c4c(P(C)(C)=O)c(C#N)ccc34)n2)CN1 (centres undefined) + CCn1c(-c2cc(N3CCN(C)CC3)cnc2C(C)OC)c2c3cc(ccc31)-c1csc(n1)CC(NC(=O)C1CC1C)C(=O)N1CCCC(N1)C(=O)OCC(C)(C)C2
2. CC1(C)CCC(Nc2ncc(C(F)(F)F)c(-c3c[nH]c4c(P(C)(C)=O)c(C#N)ccc34)n2)CN1 (centres undefined) + CCn1c(-c2cccnc2C(C)OC)c2c3cc(ccc31)N1CCOC(CC(NC(=O)C(C(C)C)N(C)C(=O)C3(F)CCN(C(=O)C#CC(C)(C)N(C)C)CC3)C(=O)N3CCCC(N3)C(=O)OCC(C)(C)C2)C1
3. CCc1c2c(nc3ccc(O)cc13)-c1cc3c(c(=O)n1C2)COC(=O)[C@]3(O)CC + CCn1c(-c2cc(N3CCN(C)CC3)cnc2C(C)OC)c2c3cc(ccc31)-c1csc(n1)CC(NC(=O)C1CC1C)C(=O)N1CCCC(N1)C(=O)OCC(C)(C)C2

1: 11.5; 2: 13.6; 3: 1.96

----------
test system: 843782-103-R-J1-PDC complex spheroid viability; experiment: Anticancer human tumor 843782-103-R-J1-PDC cell line growth inhibition [RAS]; conditions: curve of first compound; second compound 0.3 µM;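 further: viability read after seven days of compound exposure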
outcome-measure: IC50 (nM)
Give bare numbers, in nM.

compound	IC50 [nM]
C=CC(=O)Nc1cc(Nc2nccc(-c3cn(C)c4ccccc34)n2)c(OC)cc1N(C)CCN(C)C + CCn1c(-c2cccnc2C(C)OC)c2c3cc(ccc31)N1CCOC(CC(NC(=O)C(C(C)C)N(C)C(=O)C3(F)CCN(C(=O)C#CC(C)(C)N(C)C)CC3)C(=O)N3CCCC(N3)C(=O)OCC(C)(C)C2)C1	110

Kindly consider the entry below.
Could you tell me which IC50 is on file for Cc1nc(N2CCC3(CC2)COC(C)C3N)c(CO)nc1Sc1ccnc(N)c1Cl (stereo not given) + CCn1c(-c2cccnc2C(C)OC)c2c3cc(ccc31)N1CCOC(CC(NC(=O)C(C(C)C)N(C)C(=O)C3(F)CCN(C(=O)C#CC(C)(C)N(C)C)CC3)C(=O)N3CCCC(N3)C(=O)OCC(C)(C)C2)C1 ?
36.9

----------
system: 843782-103-R-J1-PDC complex spheroid viability; assay: Anticancer human tumor 843782-103-R-J1-PDC cell line growth inhibition [RAS]; conditions: curve of first compound; second compound 0.000949 µM;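 further: viability read after seven days of compound exposure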
outcome-measure: IC50 (nM)
One number for each entry, in nM.

molecule	assay-target	IC50 [nM]
CC1(O)CCCC1n1c(=O)c(C(F)F)cc2cnc(NC3CCN(S(C)(=O)=O)CC3)nc21 (stereo not drawn) + CCn1c(-c2cc(N3CCN(C)CC3)cnc2C(C)OC)c2c3cc(ccc31)-c1csc(n1)CC(NC(=O)C1CC1C)C(=O)N1CCCC(N1)C(=O)OCC(C)(C)C2	843782-103-R-J1-PDC complex spheroid viability	123

Kindly consider the entry below.
Give the reported IC50 for CCC(CC)c1cc(NC2CCC(N)C2)n2nccc2n1 (stereo not drawn) + CCn1c(-c2cccnc2C(C)OC)c2c3cc(ccc31)N1CCOC(CC(NC(=O)C(C(C)C)N(C)C(=O)C3(F)CCN(C(=O)C#CC(C)(C)N(C)C)CC3)C(=O)N3CCCC(N3)C(=O)OCC(C)(C)C2)C1 (system: 843782-103-R-J1-PDC complex spheroid viability).
1020

Recorded values, source PubChem BioAssay AID2060883.
